# Target: T1, Human NRP-1 His (human, UniProt O14786 22-856)
# T1 construct: Recombinant monomeric protein; Biotinylated in the MSD-SET assay; also called hNRP-1; not shown: His tag
# T1 sequence (O14786 22-856 V179A limits assumed): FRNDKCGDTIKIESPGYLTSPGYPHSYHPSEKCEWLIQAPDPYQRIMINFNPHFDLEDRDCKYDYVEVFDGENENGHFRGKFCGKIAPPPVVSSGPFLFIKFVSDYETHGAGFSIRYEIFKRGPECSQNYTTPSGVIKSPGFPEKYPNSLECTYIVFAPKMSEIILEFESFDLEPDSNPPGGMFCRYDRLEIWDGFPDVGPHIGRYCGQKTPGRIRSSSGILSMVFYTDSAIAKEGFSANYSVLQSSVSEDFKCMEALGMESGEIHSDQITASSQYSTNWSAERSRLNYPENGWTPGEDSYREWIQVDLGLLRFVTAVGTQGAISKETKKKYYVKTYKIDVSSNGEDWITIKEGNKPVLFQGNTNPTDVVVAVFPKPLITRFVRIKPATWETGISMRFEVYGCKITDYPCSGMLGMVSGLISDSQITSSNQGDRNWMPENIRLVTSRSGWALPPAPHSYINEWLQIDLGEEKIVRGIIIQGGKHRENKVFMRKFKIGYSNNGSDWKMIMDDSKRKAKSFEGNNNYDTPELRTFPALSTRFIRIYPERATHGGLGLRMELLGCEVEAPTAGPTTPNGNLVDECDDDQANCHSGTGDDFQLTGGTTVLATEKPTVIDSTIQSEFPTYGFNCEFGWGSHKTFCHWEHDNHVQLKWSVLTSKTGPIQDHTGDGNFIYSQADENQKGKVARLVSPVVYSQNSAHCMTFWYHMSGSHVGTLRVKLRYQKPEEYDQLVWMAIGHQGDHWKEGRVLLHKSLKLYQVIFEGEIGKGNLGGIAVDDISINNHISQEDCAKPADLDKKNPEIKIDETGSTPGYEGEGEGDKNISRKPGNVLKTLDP
# Assay Procedure: BLI Octet QKe, IgG4 S228P on AHC sensor, multi-concentration monomeric antigen, global 1:1 fit
Recorded Kd, one value per entry.
Express the result in nM but write the number alone.

// below: answered binders
Binder	Reported Measurement
MAB14 IgG4 S228P (antibody, V domains shown) VH: QVQLQQWGAGLLKPSETLSLTCAVYGGSFRGYYWEWSRQPPGKGLEWIGEISHSGSTNYNPSLKSRVTISVDTSKNQFSLKLSPVTAADTAVYYCARARPYREPYGMDVWGQGTTVTVSS VL: DIQLTQSPSSVSASVGDRVTITCRASQDISSWLAWYQQKPGKAPKLLIYAASSLQSGVPSRFSGSGSGTDFTLTISSLQPEDFATYYCQQELAFPRTFGGGTKVEIKR	0.87
MAB13 IgG4 S228P (antibody, V domains shown) VH: QVQLQQWGAGLLKPSETLSLTCAVYGGSFRGYYWEWIRQPPGKGLEWIGEISHSGSTNYNPSLKSRVTISVDTSKNQFSLKLSSVTAADTAVYYCARARPYREPYGMDVWGQGTTVTVSS VL: DIQLTQSPSSVSASVGDRVTITCRASQDISSWLAWYQQKPGKAPKLLIYAASSLQSGVPSRFSGSGSGTDFTLTISSLQPEDFATYYCQQELAFPRTFGGGTKVEIKR	0.96
MAB12 IgG4 S228P (antibody, V domains shown) VH: EVQLLESGGGLVQPGGSLRLSCAASGFTFSSVAMVWVRQAPGKGLEWVSAISGSGGATYYADSVEGRFTISRDNSKNTLYLQMNSLRAEDTAVYYCAKDPGYDSSRYYYSNYGMDVWGQGTTVTVSS VL: DIQMTQSPSSLSASVGDRVTITCRASQSISSYLNWYQQKPGKAPKLLIYGASSLQSGVPSRFSGSGSGTDFTLTISSLQPEDFATYYCQQTYSLYTFGGGTKVEIKR	0.12
MAB5 IgG4 S228P (antibody, V domains shown) VH: QVQLVQSGAEVKKPGASVKVSCKASGYTFTSYYMHWVRQAPGQGLEWMGIINPQGGDTSYAQKFQGRVTMTRDTSTSTVYMELSSLRSEDTAVYYCARDRGMYYASGFGPWGQGTLVTVSS VL: EIVMTQSPGTLSLSPGERATLSCRASQSVSSSYLAWYQQKPGQAPRLLIYGASNRATGIPDRFSGSGSGTDFTLTISRLEPEDFAVYYCQQLSSFPITFGGGTKVEIKR	8.4
MAB4 IgG4 S228P (antibody, V domains shown) VH: QVQLVQSGAEVKKPGASVKVSCKASGYTFSRYYMHWVRQAPGQGLEWMGIINPLGGSTLYAQKFQGRVTMTRDTSTSTVYMELSSLRSEDTAVYYCARDLGYYGSGMHVWGQGTLVTVSS VL: DIQMTQSPSSVSASVGDRVTITCRASQGISRWLAWYQQKPGKAPKLLIYAASSLQSGVPSRFSGSGSGTDFTLTISSLQPEDFATYYCQQANLLPFTFGGGTKVEIKR	3.1

Form field Kd, entry MAB3 IgG4 S228P (antibody, V domains shown) VH: QAQLVQSGAEVKKPGASVKVSCKASGYTFSRYYMHWVRQAPGQGLEWMGIINPLGGSTLYAQKFQGRVTMTRDTSTSTVYMELSSLRSEDTAVYYCARDLGYYGSGMHAWGQGTLVTVSS VL: DIQMTQSPSSVSASVGDRVTITCRASQGISRWLAWYQQKPGKAPKLLIYAASSLQSGVPSRFSGSGSGTDFTLTISSLQPEDFATYYCQQANLLPFTFGGGTKVEIKR : 3.7

Sure, the documented Kd for MAB2 IgG4 S228P (antibody, V domains shown) VH: QVQLVQSGAEVKKPGASVKVSCKASGYTFRSYYMLWVRQAPGQGLEWMGIIDPSDGSTSYAQKFQGRVTMTRDASTSTVYMELSSLRSEDTAVYYCARGARRITGYGMDVWGQGTTVIVSS VL: DIQMTQSPSSVSASVGDRVTITCRASQGISSWLAWYQQKPGKAPKLLIYAASNLQSGVPSRFSGSGSGTDFTLTISSLQPEDFATYYCQQASVFPFTFGGGTKVEIKR is 2.4
